# assayed-target: recombinant human AChE (Homo sapiens, UniProt P22303)
# Construct: purchased Sigma C1682
# Sequence (P22303 32-614): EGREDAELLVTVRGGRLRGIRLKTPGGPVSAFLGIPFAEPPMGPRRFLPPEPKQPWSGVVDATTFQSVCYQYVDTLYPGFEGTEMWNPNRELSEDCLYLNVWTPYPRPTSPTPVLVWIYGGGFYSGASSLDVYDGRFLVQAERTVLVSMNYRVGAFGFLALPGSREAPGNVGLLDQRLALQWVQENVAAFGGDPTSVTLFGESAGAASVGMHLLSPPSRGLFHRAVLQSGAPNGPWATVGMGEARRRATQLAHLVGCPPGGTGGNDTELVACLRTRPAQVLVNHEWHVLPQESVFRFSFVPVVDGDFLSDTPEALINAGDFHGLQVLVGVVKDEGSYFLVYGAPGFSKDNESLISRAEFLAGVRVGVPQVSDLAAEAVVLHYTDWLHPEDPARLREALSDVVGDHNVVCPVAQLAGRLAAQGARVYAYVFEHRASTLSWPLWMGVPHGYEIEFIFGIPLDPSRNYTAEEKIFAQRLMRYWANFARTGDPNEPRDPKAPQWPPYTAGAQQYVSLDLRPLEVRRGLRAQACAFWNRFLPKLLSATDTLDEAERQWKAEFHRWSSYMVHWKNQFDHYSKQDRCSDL
# procedure-summary: Modified Ellman's colorimetric assay for AChE and kinetic studies
# Format: biochemical
# condition-notes: 200 µM compound; compared to control; mean of three experiments in triplicate; read-out: AChE % IR (inhibition rate)
metric: inhibition at 200 µM (%)
Quick reminder: number only, in %, skip the unit.

Worked cases, inhibition at 200 µM given:
{"compound": "COCCNc1c(-c2cc3cc(C)ccc3[nH]c2=O)nc2ccc(Cl)cn12", "value-observed": 15.7}
{"compound": "COc1cc(CN2CCC(C(=O)N3CCC(C)CC3)CC2)ccc1OCc1ccccc1", "value-observed": 26.1}
{"compound": "CCc1ccccc1NC(=O)CSc1nnc(-c2cccnc2)n1CC [Compound E2]", "value-observed": 2.7}
{"compound": "Cc1cccc(N2CCN(CC(=O)Nc3ccc(C)c(F)c3)CC2)c1 [Compound D1]", "value-observed": 0}

Query string: Which inhibition at 200 µM reading was recorded for the compound CC(C)NC(=O)C1CCN(C(=O)c2csc(Nc3cccc4ccccc34)n2)CC1 ?
Result string: 0

Query string: I have this compound here, O=C(NC1CCCC1)c1ccc(CN2CCN(Cc3ccccc3)CC2)cc1 , and I need its recorded inhibition at 200 µM.
Result string: 0

====

# assayed-target: plasma BuChE (Homo sapiens, UniProt P06276)
# Construct: 1:450 diluted solution of a pooled human plasma; from tissue; host or cells: pooled human plasma
# Sequence (P06276 29-602): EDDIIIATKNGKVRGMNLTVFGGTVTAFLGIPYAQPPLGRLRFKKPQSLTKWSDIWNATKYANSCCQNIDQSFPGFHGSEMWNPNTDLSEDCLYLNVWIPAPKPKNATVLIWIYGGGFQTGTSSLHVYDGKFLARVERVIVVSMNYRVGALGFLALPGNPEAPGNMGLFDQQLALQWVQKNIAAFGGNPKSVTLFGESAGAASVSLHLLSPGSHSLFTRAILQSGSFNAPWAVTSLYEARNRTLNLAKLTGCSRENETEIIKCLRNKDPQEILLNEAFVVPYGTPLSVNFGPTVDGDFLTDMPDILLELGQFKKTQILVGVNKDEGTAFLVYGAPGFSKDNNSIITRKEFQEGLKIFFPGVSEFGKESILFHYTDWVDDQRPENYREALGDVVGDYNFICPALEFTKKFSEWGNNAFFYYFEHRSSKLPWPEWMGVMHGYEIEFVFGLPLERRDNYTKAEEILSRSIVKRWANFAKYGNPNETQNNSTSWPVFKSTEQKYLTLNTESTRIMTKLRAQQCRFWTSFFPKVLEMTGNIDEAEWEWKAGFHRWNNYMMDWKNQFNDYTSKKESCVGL
# procedure-summary: Modified Ellman's colorimetric assay for BuChE (pooled human plasma) and kinetic studies
# Format: biochemical
# condition-notes: mean of two experiments
metric: Ki (µM)
State just the number; it will be interpreted in µM.

Consider the following illustrative entries.
{"item-smiles": "CCn1c(CNC(=O)COc2ccc(F)cc2)cc2ccccc21", "value-observed": 59.4}
{"item-smiles": "CCn1c(CNC(=O)COc2ccccc2F)cc2ccccc21", "value-observed": 59.6}

Now, please, on to the next compound.
Query string: What does the data say about its Ki? Entry: O=C(NC1CCCC1)c1ccc(CN2CCN(Cc3ccccc3)CC2)cc1
Result string: 84.9

====

# System: HEK 293 cells
# procedure-summary: MTT cell viability assay
# Format: cell-based
# condition-notes: 10 µM, overnight; control cells 100%; mean ± SD of 3 readings
Cut-off 80% on % of cell proliferation, inclusive. At or above means true; below means false.

{"compound": "CC(C)NC(=O)C1CCN(C(=O)c2csc(Nc3cccc4ccccc34)n2)CC1", "assayed-target": "HEK 293 cells", "discrete-label": "true"}

Query string: Evaluate O=C(NC1CCCC1)c1ccc(CN2CCN(Cc3ccccc3)CC2)cc1 : % of cell proliferation at minimum 80%?
Result string: false

Query string: Hello, I need to know if CC(C)c1ccc(C(=O)CSc2n[nH]c(-c3ccco3)n2)cc1 [Compound E1] has measured % of cell proliferation not below 80%. Thanks!
Result string: true

Query string: Is reported % of cell proliferation greater than or equal to 80% here: CCn1c(CNC(=O)COc2ccccc2F)cc2ccccc21
Result string: true

Query string: Would you say COc1cc(CN2CCN(Cc3ccccc3Cl)CC2)c([N+](=O)[O-])cc1OC shows % of cell proliferation at minimum 80%?
Result string: true

Query string: Decide: % of cell proliferation of CCn1c(CNC(=O)COc2ccc(F)cc2)cc2ccccc21 >= 80%?
Result string: true
